Measured activity at 10 µM by item
Tested on: HOP-62
Test name: NCI 60 cell line screen
Format: cell-based
Run parameters: Homo sapiens; HOP-62, Non-Small Cell Lung Cancer; read-out: Percent growth

{"Molecule": "O=S(=O)(NCCNc1nccc(-n2cnc3ccccc32)n1)c1ccc(F)cc1 [12b]", "Study system": "HOP-62", "activity at 10 µM": "90.9%"}
{"Molecule": "O=S(=O)(NCCCNc1nccc(-n2cnc3ccccc32)n1)c1ccc(C(F)(F)F)cc1 [12l]", "Study system": "HOP-62", "activity at 10 µM": "77.3%"}
{"Molecule": "O=S(=O)(NCCNc1nccc(-n2cnc3ccccc32)n1)c1ccc(Cl)cc1 [12c]", "Study system": "HOP-62", "activity at 10 µM": "95.4%"}
{"Molecule": "COc1ccc(S(=O)(=O)NCCNc2nccc(-n3cnc4ccccc43)n2)cc1 [12f]", "Study system": "HOP-62", "activity at 10 µM": "94.6%"}
{"Molecule": "O=S(=O)(NCCNc1nccc(-n2cnc3ccccc32)n1)c1ccccc1 [12a]", "Study system": "HOP-62", "activity at 10 µM": "90.7%"}
{"Molecule": "O=S(=O)(NCCCNc1nccc(-n2cnc3ccccc32)n1)c1ccc(Br)cc1 [12k]", "Study system": "HOP-62", "activity at 10 µM": "107%"}
{"Molecule": "O=S(=O)(NCCNc1nccc(-n2cnc3ccccc32)n1)c1ccc(Br)cc1 [12d]", "Study system": "HOP-62", "activity at 10 µM": "87.2%"}
{"Molecule": "O=S(=O)(NCCCNc1nccc(-n2cnc3ccccc32)n1)c1ccccc1 [12h]", "Study system": "HOP-62", "activity at 10 µM": "96.9%"}
{"Molecule": "O=S(=O)(NCCCNc1nccc(-n2cnc3ccccc32)n1)c1ccc(Cl)cc1 [12j]", "Study system": "HOP-62", "activity at 10 µM": "101%"}
{"Molecule": "O=S(=O)(NCCNc1nccc(-n2cnc3ccccc32)n1)c1ccc(C(F)(F)F)cc1 [12e]", "Study system": "HOP-62", "activity at 10 µM": "66.1%"}
{"Molecule": "O=S(=O)(NCCCNc1nccc(-n2cnc3ccccc32)n1)c1cccc2ccccc12 [12n]", "Study system": "HOP-62", "activity at 10 µM": "87.1%"}
{"Molecule": "O=S(=O)(NCCCNc1nccc(-n2cnc3ccccc32)n1)c1ccc(F)cc1 [12i]", "Study system": "HOP-62", "activity at 10 µM": "82.7%"}
{"Molecule": "Cc1ccc(S(=O)(=O)NCCNc2nccc(-n3cnc4ccccc43)n2)cc1 [12g]", "Study system": "HOP-62", "activity at 10 µM": "69.6%"}
{"Molecule": "COc1ccc(S(=O)(=O)NCCCNc2nccc(-n3cnc4ccccc43)n2)cc1 [12m]", "Study system": "HOP-62", "activity at 10 µM": "94.8%"}

----------
System: RXF 393
Test name: NCI 60 cell line screen
Assay type: cell-based, human
Run parameters: Homo sapiens; RXF 393, Renal Cancer; read-out: Percent growth
Experimental: Anticancer profiling over a panel of 60 cancer cell lines was carried out at the National Cancer Institute (NCI), Bethesda, Maryland, USA, https://dtp.cancer.gov/discovery_development/nci-60/methodology.htm (Last visit 22 September 2021), using the standard procedure (detailed procedure is located in the Supplementary Information page 50 s). NCI standard procedure for 60 cell lines assay […] Three dose response parameters are calculated for each experimental agent. […] (TGI) is calculated from Ti = Tz.

{"Compound": "O=S(=O)(NCCNc1nccc(-n2cnc3ccccc32)n1)c1ccc(Cl)cc1 [12c]", "activity at 10 µM / %": 117}
{"Compound": "O=S(=O)(NCCNc1nccc(-n2cnc3ccccc32)n1)c1ccccc1 [12a]", "activity at 10 µM / %": 113}
{"Compound": "O=S(=O)(NCCCNc1nccc(-n2cnc3ccccc32)n1)c1ccc(F)cc1 [12i]", "activity at 10 µM / %": 163}
{"Compound": "O=S(=O)(NCCNc1nccc(-n2cnc3ccccc32)n1)c1ccc(Br)cc1 [12d]", "activity at 10 µM / %": 101}
{"Compound": "O=S(=O)(NCCCNc1nccc(-n2cnc3ccccc32)n1)c1ccccc1 [12h]", "activity at 10 µM / %": 110}
{"Compound": "Cc1ccc(S(=O)(=O)NCCNc2nccc(-n3cnc4ccccc43)n2)cc1 [12g]", "activity at 10 µM / %": 55.4}
{"Compound": "O=S(=O)(NCCNc1nccc(-n2cnc3ccccc32)n1)c1ccc(F)cc1 [12b]", "activity at 10 µM / %": 106}
{"Compound": "O=S(=O)(NCCCNc1nccc(-n2cnc3ccccc32)n1)c1ccc(Br)cc1 [12k]", "activity at 10 µM / %": 111}

Origin of values: paper PMC8508980
